- Tested on: MOLM-13 cells (human acute myeloid leukemia cells)
- assay comment: MOLM-13 Cellular Assay
- Type: cell-based
- condition notes: Homo sapiens, MOLM-13, 72 h, 72 hours exposure, cell viability by CellTiter-Glo
- Method: The following assay is referred to herein as the “MOLM-13 Cellular Assay.” MOLM-13 cells (human acute myeloid leukemia cells) were obtained from DSMZ and were maintained in RPMI 1640+Glutamax+25 mM HEPES (Invitrogen, catalog number 72400) supplemented with 10% heat inactivated fetal bovine serum (FBS; Invitrogen, catalog number 16140). The day prior to assay set-up, cells were pelleted, resuspended in fresh media, counted, and cells were plated at 0.4×10^6 cell/mL in a T150 flask. […]
reported property: pIC50
// pIC50 here means minus log10 of the molar concentration (mol/L)

Solved cases (8 shown):
[[record]]
structure = "CCn1c(CO)nn(-c2cc3c(C(C)C)cn(-c4c(C)cccc4F)c(=O)c3cc2F)c1=O"
quantitative_result = 9.15

[[record]]
structure = "C=C(C)c1cn(-c2ccccc2Cl)c(=O)c2ccc(-n3nc(CO)n(CC)c3=O)cc12"
quantitative_result = 9.40

[[record]]
structure = "C=C(C)c1cn(-c2ccccc2C#N)c(=O)c2ccc(-n3nc(CO)n(CC)c3=O)cc12"
quantitative_result = 8.22

[[record]]
structure = "CCn1c(CO)nn(-c2nc3c(C(C)C)cn(-c4cc(C)ccc4F)c(=O)c3cc2F)c1=O"
quantitative_result = 8.15

[[record]]
structure = "CCn1c(CO)nn(-c2nc3c(C(C)C)cn(-c4ccccc4C(F)F)c(=O)c3cc2F)c1=O"
quantitative_result = 9.00

[[record]]
structure = "CCc1nn(-c2cccc(F)c2)c(=O)c2ccc(-n3nc(CO)n(CC)c3=O)cc12"
quantitative_result = 7.00

[[record]]
structure = "CCn1c(CO)nn(-c2cc3c(C(C)C)cn(-c4ccccc4C(F)(F)F)c(=O)c3cc2F)c1=O"
quantitative_result = 9.52

[[record]]
structure = "C=C(C)c1cn(-c2cc(OC)ncc2F)c(=O)c2cc(F)c(-n3nc(CO)n(CC)c3=O)cc12"
quantitative_result = 7.70


Consider the compound C=C(c1cn(-c2c(F)cccc2Cl)c(=O)c2ccc(-n3nc(CO)n(CC)c3=O)cc12)C(F)(F)F and give its recorded pIC50.
9.00

Consider the compound CCn1c(CO)nn(-c2cc3c(C(C)C)cn(-c4nc(OC)ccc4Cl)c(=O)c3cc2F)c1=O and give its recorded pIC50.
8.70
